target: SK678Siglec+Unique (SLBRSK678, GST fusion), S. sanguinis strain SK678, variant E298R; assay: ELISA, biotinylated sialoglycan binding to immobilized GST-adhesin; settings: ELISA curves
ASSAY READOUT: EC50 (µg/mL)
A number alone suffices; assume µg/mL.

| MOLECULE | ASSAY READOUT | RESULT UNIT | OBSERVED RESULT |
| --- | --- | --- | --- |
| CC(=O)N[C@H]1[C@H]([C@H](O)[C@H](O)CO)O[C@@](O[C@H]2[C@@H](O)[C@@H](CO)O[C@@H](O[C@H]3[C@H](O)[C@@H](NC(C)=O)C(O)O[C@@H]3CO)[C@@H]2O)(C(=O)O)C[C@@H]1O (stereo partly shown) [3′sLn, Neu5Acα2-3Galβ1-4GlcNAc] | EC50 | µg/mL | 2.60 |

The molecule listed as CC(=O)N[C@H]1[C@H]([C@H](O)[C@H](O)CO)O[C@@](O[C@H]2[C@@H](O)[C@@H](CO)O[C@@H](O[C@H]3[C@H](O[C@@H]4O[C@@H](C)[C@@H](O)[C@@H](O)[C@@H]4O)[C@@H](NC(C)=O)C(O)O[C@@H]3COS(=O)(=O)O)[C@@H]2O)(C(=O)O)C[C@@H]1O (stereo partly drawn) [6S-sLe^X] has a reported EC50 of 0.06

###

test system: SK678Siglec+Unique (SLBRSK678, GST fusion), S. sanguinis strain SK678, chimera +Hsa FG loop; experiment: ELISA, biotinylated sialoglycan binding to immobilized GST-adhesin chimera; design: species or system Streptococcus sanguinis strain SK678; settings: +SLBRHsa FG loop; one-point, 1-2 μg/ml biotinylated glycans

| COMPOUND | relative binding strength (A450) |
| --- | --- |
| CC(=O)N[C@H]1[C@H]([C@H](O)[C@H](O)CO)O[C@@](O[C@H]2[C@@H](O)[C@@H](CO)O[C@@H](O[C@H]3[C@@H](O)[C@@H](CO)OC(O)[C@@H]3NC(C)=O)[C@@H]2O)(C(=O)O)C[C@@H]1O (stereo partly shown) [sTa, Neu5Acα2-3Galβ1-3GalNAc] | − (A450 < 0.3) |
| CC(=O)N[C@H]1[C@H]([C@H](O)[C@H](O)CO)O[C@@](O[C@H]2[C@@H](O)[C@@H](CO)O[C@@H](O[C@H]3[C@H](O)[C@@H](CO)OC(O)[C@@H]3NC(C)=O)[C@@H]2O)(C(=O)O)C[C@@H]1O (stereo partly shown) [sLe^C, Neu5Acα2-3Galβ1-3GlcNAc] | − (A450 < 0.3) |
| CC(=O)N[C@H]1[C@H]([C@H](O)[C@H](O)CO)O[C@@](O[C@H]2[C@@H](O)[C@@H](CO)O[C@@H](O[C@H]3[C@H](O[C@@H]4O[C@@H](C)[C@@H](O)[C@@H](O)[C@@H]4O)[C@@H](NC(C)=O)C(O)O[C@@H]3COS(=O)(=O)O)[C@@H]2O)(C(=O)O)C[C@@H]1O (stereo partly drawn) [6S-sLe^X] | − (A450 < 0.3) |

###

system: SK678Siglec+Unique (SLBRSK678, GST fusion), S. sanguinis strain SK678, chimera +Hsa EF loop; assay: ELISA, biotinylated sialoglycan binding to immobilized GST-adhesin chimera; design: species or system Streptococcus sanguinis strain SK678; conditions: +SLBRHsa EF loop; one-point, 1-2 μg/ml biotinylated glycans

| COMPOUND | relative binding strength (A450) |
| --- | --- |
| CC(=O)N[C@H]1[C@H]([C@H](O)[C@H](O)CO)O[C@@](O[C@H]2[C@@H](O)[C@@H](CO)O[C@@H](O[C@H]3[C@@H](O)[C@@H](CO)OC(O)[C@@H]3NC(C)=O)[C@@H]2O)(C(=O)O)C[C@@H]1O (stereo partly shown) | − (A450 < 0.3) |
| CC(=O)N[C@H]1[C@H]([C@H](O)[C@H](O)CO)O[C@@](O[C@H]2[C@@H](O)[C@@H](CO)O[C@@H](O[C@H]3[C@H](O[C@@H]4O[C@@H](C)[C@@H](O)[C@@H](O)[C@@H]4O)[C@@H](NC(C)=O)C(O)O[C@@H]3COS(=O)(=O)O)[C@@H]2O)(C(=O)O)C[C@@H]1O (stereo partly shown) | ++ (A450 = 0.7-1) |
| CC(=O)N[C@H]1[C@H]([C@H](O)[C@H](O)CO)O[C@@](O[C@H]2[C@@H](O)[C@@H](CO)O[C@@H](O[C@H]3[C@H](O)[C@@H](CO)OC(O)[C@@H]3NC(C)=O)[C@@H]2O)(C(=O)O)C[C@@H]1O (stereo partly shown) | − (A450 < 0.3) |
| CC(=O)N[C@H]1[C@H]([C@H](O)[C@H](O)CO)O[C@@](O[C@H]2[C@@H](O)[C@@H](CO)O[C@@H](O[C@H]3[C@H](O)[C@@H](NC(C)=O)C(O)O[C@@H]3CO)[C@@H]2O)(C(=O)O)C[C@@H]1O (stereo partly shown) | ++ (A450 = 0.7-1) |

###

test system: UB10712Siglec+Unique (SLBRUB10712, GST fusion), S. gordonii strain UB10712, chimera +Hsa EF loop; experiment: ELISA, biotinylated sialoglycan binding to immobilized GST-adhesin chimera; parameters: species or system Streptococcus gordonii strain UB10712; details: +SLBRHsa EF loop; one-point, 1-2 μg/ml biotinylated glycans

| MOLECULE | relative binding strength (A450) |
| --- | --- |
| CC(=O)N[C@H]1[C@H]([C@H](O)[C@H](O)CO)O[C@@](O[C@H]2[C@@H](O)[C@@H](CO)O[C@@H](O[C@H]3[C@H](O)[C@@H](CO)OC(O)[C@@H]3NC(C)=O)[C@@H]2O)(C(=O)O)C[C@@H]1O (stereo partly shown) | + (A450 = 0.3-0.7) |
| CC(=O)N[C@H]1[C@H]([C@H](O)[C@H](O)CO)O[C@@](O[C@H]2[C@@H](O)[C@@H](CO)O[C@@H](O[C@H]3[C@@H](O)[C@@H](CO)OC(O)[C@@H]3NC(C)=O)[C@@H]2O)(C(=O)O)C[C@@H]1O (stereo partly shown) | + (A450 = 0.3-0.7) |
| CC(=O)N[C@H]1[C@H]([C@H](O)[C@H](O)CO)O[C@@](O[C@H]2[C@@H](O)[C@@H](CO)O[C@@H](O[C@H]3[C@H](O)[C@@H](NC(C)=O)C(O)O[C@@H]3CO)[C@@H]2O)(C(=O)O)C[C@@H]1O (stereo partly shown) | +++ (A450 > 1) |
| CC(=O)N[C@H]1[C@H]([C@H](O)[C@H](O)CO)O[C@@](O[C@H]2[C@@H](O)[C@@H](CO)O[C@@H](O[C@H]3[C@H](O[C@@H]4O[C@@H](C)[C@@H](O)[C@@H](O)[C@@H]4O)[C@@H](NC(C)=O)C(O)O[C@@H]3COS(=O)(=O)O)[C@@H]2O)(C(=O)O)C[C@@H]1O (stereo partly shown) | +++ (A450 > 1) |

###

molecular target: HsaSiglec+Unique (SLBRHsa, GST fusion), wild-type, Streptococcus gordonii strain Challis (Streptococcus gordonii, UniProt A8AWU7); construct: the Siglec and Unique domains of Hsa; made in house; assay: ELISA, biotinylated sialoglycan binding to immobilized GST-adhesin; conditions: ligands chosen for costructures
Sequence (A8AWU7 220-449 limits assumed): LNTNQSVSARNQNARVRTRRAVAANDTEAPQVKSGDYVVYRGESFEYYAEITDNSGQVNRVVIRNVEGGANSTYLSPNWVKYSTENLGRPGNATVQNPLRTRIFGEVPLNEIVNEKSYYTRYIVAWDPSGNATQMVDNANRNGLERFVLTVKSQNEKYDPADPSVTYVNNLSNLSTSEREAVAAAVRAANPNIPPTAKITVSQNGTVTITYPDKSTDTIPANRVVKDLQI
ASSAY READOUT: ligand affinity class

| COMPOUND | ASSAY READOUT | OBSERVED RESULT |
| --- | --- | --- |
| CC(=O)N[C@H]1[C@H]([C@H](O)[C@H](O)CO)O[C@@](O[C@H]2[C@@H](O)[C@@H](CO)O[C@@H](O[C@H]3[C@H](O)[C@@H](CO)OC(O)[C@@H]3NC(C)=O)[C@@H]2O)(C(=O)O)C[C@@H]1O (stereo partly shown) [sLe^C, Neu5Acα2-3Galβ1-3GlcNAc] | ligand affinity class | high-affinity |
| CC(=O)N[C@H]1[C@H]([C@H](O)[C@H](O)CO)O[C@@](O[C@H]2[C@@H](O)[C@@H](CO)O[C@@H](O[C@H]3[C@@H](O)[C@@H](CO)OC(O)[C@@H]3NC(C)=O)[C@@H]2O)(C(=O)O)C[C@@H]1O (stereo partly shown) [sTa, Neu5Acα2-3Galβ1-3GalNAc] | ligand affinity class | high-affinity |

###

System: SK678Siglec+Unique (SLBRSK678, GST fusion), S. sanguinis strain SK678, chimera +Hsa CD loop
Test: ELISA, biotinylated sialoglycan binding to immobilized GST-adhesin chimera
Parameters: species or system Streptococcus sanguinis strain SK678
Settings: +SLBRHsa CD loop; one-point, 1-2 μg/ml biotinylated glycans
Text: 21. FIGS. 11A, and 11B show chimeras of SRR adhesins. […] Values correspond to the mean±standard deviation, with n=2 (wt) or n=3 (variants). […] Values correspond to the mean±standard deviation, with n=2 (wt) or n=3 (variants).

| MOLECULE | relative binding strength (A450) |
| --- | --- |
| CC(=O)N[C@H]1[C@H]([C@H](O)[C@H](O)CO)O[C@@](O[C@H]2[C@@H](O)[C@@H](CO)O[C@@H](O[C@H]3[C@H](O[C@@H]4O[C@@H](C)[C@@H](O)[C@@H](O)[C@@H]4O)[C@@H](NC(C)=O)C(O)O[C@@H]3COS(=O)(=O)O)[C@@H]2O)(C(=O)O)C[C@@H]1O (stereo partly shown) | − (A450 < 0.3) |
| CC(=O)N[C@H]1[C@H]([C@H](O)[C@H](O)CO)O[C@@](O[C@H]2[C@@H](O)[C@@H](CO)O[C@@H](O[C@H]3[C@H](O)[C@@H](CO)OC(O)[C@@H]3NC(C)=O)[C@@H]2O)(C(=O)O)C[C@@H]1O (stereo partly shown) | − (A450 < 0.3) |
| CC(=O)N[C@H]1[C@H]([C@H](O)[C@H](O)CO)O[C@@](O[C@H]2[C@@H](O)[C@@H](CO)O[C@@H](O[C@H]3[C@H](O)[C@@H](NC(C)=O)C(O)O[C@@H]3CO)[C@@H]2O)(C(=O)O)C[C@@H]1O (stereo partly shown) | − (A450 < 0.3) |
| CC(=O)N[C@H]1[C@H]([C@H](O)[C@H](O)CO)O[C@@](O[C@H]2[C@@H](O)[C@@H](CO)O[C@@H](O[C@H]3[C@@H](O)[C@@H](CO)OC(O)[C@@H]3NC(C)=O)[C@@H]2O)(C(=O)O)C[C@@H]1O (stereo partly shown) | − (A450 < 0.3) |
